Ki listing for selected molecules.
tgt: aurora A (Homo sapiens)
Sequence (O14965 whole entry): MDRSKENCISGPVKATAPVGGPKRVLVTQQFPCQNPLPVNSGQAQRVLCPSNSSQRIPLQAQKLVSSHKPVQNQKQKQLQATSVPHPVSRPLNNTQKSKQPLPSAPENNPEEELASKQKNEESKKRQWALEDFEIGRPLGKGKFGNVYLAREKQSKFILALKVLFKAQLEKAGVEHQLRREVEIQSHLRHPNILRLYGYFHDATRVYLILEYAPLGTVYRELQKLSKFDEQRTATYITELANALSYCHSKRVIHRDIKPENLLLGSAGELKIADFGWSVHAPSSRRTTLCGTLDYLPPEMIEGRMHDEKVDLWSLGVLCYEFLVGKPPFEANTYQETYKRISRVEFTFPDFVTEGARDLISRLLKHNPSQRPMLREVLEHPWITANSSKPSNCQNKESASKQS
procedure summary: Kinase assay aurora A
Type: biochemical
experimental parameters: Ki calculated (Cheng-Prusoff) from experimentally determined IC50 and Km,ATP; read-out: Kinase Inhibition Ki Aurora A
Report as a plain number; the unit nM is understood.

Here is how some molecules turned out for Ki.
chemical smiles | unit of measurement | Ki
Cc1cc(Nc2nccc(-c3sc(=O)n(C)c3C)n2)cnc1Cl | nM | 500
Cc1c(-c2ccnc(Nc3ccc(N(C)C)c([N+](=O)[O-])c3)n2)sc(=O)n1C | nM | 110
CCn1c(C)c(-c2ccnc(Nc3ccc(F)cc3)n2)sc1=O | nM | 43
Cc1c(-c2ccnc(Nc3ccc(F)cc3)n2)sc(=O)n1C | nM | 350
Cc1c(-c2ccnc(Nc3cccc(S(N)(=O)=O)c3)n2)sc(=O)n1C | nM | 30

// Ki lookup, molecule = `Cc1c(-c2ccnc(Nc3ccc(CN)cc3)n2)sc(=O)n1C` , result: 380

// Ki lookup, molecule = `Cc1c(-c2ccnc(Nc3cccc(CNS(=O)(=O)C(F)(F)F)c3)n2)sc(=O)n1C` , result: 840

// Ki lookup, molecule = `CC(=O)N1CCN(c2cccc(Nc3nccc(-c4sc(=O)n(C)c4C)n3)c2)CC1` , result: 110

// Ki lookup, molecule = `Cc1c(-c2ccnc(Nc3ccc(S(=O)(=O)NCCO)cc3)n2)sc(=O)n1C` , result: 510

// Ki lookup, molecule = `CCn1c(C)c(-c2ccnc(Nc3ccc(C)c(O)c3)n2)sc1=O` , result: 53

// Ki lookup, molecule = `Cc1c(-c2ccnc(Nc3cccc(CNC(=O)c4ccccc4)c3)n2)sc(=O)n1C` , result: 160

// Ki lookup, molecule = `Cc1c(-c2ccnc(Nc3ccc(N4CCNCC4)c(Cl)c3)n2)sc(=O)n1C` , result: 38

// Ki lookup, molecule = `Cc1c(-c2ccnc(Nc3ccc(N4CCNCC4)cc3)n2)sc(=O)n1C` , result: 88

// Ki lookup, molecule = `Cc1c(-c2ccnc(Nc3ccc(CNC(=O)c4ccccn4)cc3)n2)sc(=O)n1C` , result: 63

// Ki lookup, molecule = `Cc1c(-c2ccnc(Nc3cccc(CNS(C)(=O)=O)c3)n2)sc(=O)n1C` , result: 46

// Ki lookup, molecule = `CCn1c(C)c(-c2ccnc(Nc3ccc(N4CCOCC4)cc3)n2)sc1=O` , result: 33

* * *

tgt: CDK7/cyclin H (Homo sapiens, UniProt P50613)
Sequence (P50613 whole entry, species assumed): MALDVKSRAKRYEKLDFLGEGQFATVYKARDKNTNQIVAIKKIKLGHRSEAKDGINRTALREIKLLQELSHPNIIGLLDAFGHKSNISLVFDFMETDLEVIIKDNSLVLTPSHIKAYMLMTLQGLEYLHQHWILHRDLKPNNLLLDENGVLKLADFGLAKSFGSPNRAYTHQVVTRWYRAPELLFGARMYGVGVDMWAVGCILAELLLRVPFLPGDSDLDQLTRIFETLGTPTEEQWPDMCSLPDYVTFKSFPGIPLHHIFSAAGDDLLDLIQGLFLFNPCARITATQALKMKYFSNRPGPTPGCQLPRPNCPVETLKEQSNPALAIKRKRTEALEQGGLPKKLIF
Sequence (P51946 whole entry partner, species assumed): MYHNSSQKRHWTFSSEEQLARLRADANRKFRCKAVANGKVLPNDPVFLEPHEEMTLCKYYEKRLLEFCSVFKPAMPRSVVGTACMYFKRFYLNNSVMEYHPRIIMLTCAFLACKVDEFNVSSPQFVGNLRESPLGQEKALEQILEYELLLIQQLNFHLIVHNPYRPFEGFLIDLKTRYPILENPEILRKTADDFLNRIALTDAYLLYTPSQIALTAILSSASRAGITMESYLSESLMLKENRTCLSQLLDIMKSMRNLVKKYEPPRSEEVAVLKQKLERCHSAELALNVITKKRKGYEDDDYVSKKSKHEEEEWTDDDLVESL
procedure summary: Kinase assay CDK7/cyclin H
experimental parameters: Ki calculated (Cheng-Prusoff) from experimentally determined IC50 and Km,ATP; read-out: Kinase Inhibition Ki CDK7 - cyclin H
measurement name: pKi
On this scale, pKi is minus log10 of a concentration expressed in M (mol/L).

Here is how some molecules turned out for pKi.
chemical smiles | tgt | pKi
CCn1c(C)c(-c2ccnc(Nc3ccc(N4CCOCC4)cc3)n2)sc1=O | CDK7/cyclin H (Homo sapiens, UniProt P50613) | 5.80
CCn1c(C)c(-c2ccnc(Nc3ccc(N(C)C)c([N+](=O)[O-])c3)n2)sc1=O | CDK7/cyclin H (Homo sapiens, UniProt P50613) | 7.37

// pKi lookup, molecule = `COCCNS(=O)(=O)c1ccc(Nc2nccc(-c3sc(=O)n(C)c3C)n2)cc1` , result: 6.03

// pKi lookup, molecule = `Cc1ccc(Nc2nccc(-c3sc(=O)n(C)c3C)n2)cc1S(=O)(=O)N1CCOCC1` , result: 5.92

// pKi lookup, molecule = `COc1ccc(Nc2nccc(-c3sc(=O)n(C)c3C)n2)cc1` , result: 6.04
